- System: Escherichia coli TOP10
- run-description: shrunken log2 fold change of peptide-encoding DNA abundance (4.5 h post-induction vs induction); higher = less antimicrobial activity (less host growth inhibition)
- stated-conditions: time post-induction: 4.5 h; library: site-saturation at positions 5, 18, 19, 20
Field: shrunken log2 fold change. Provide a value for each of the sequences that follow.
Answers are plain numbers.

State the recorded shrunken log2 fold change for every item in the following list.
1. RRIRHRPPRLPRPRPRPIVQPRP
2. RRIRYRPPRLPRPRPRPHYTPRP
3. RRIRCRPPRLPRPRPRPRYHPRP
4. RRIRRRPPRLPRPRPRPIRQPRP
5. RRIRFRPPRLPRPRPRPANKPRP
6. RRIRLRPPRLPRPRPRPEEIPRP
7. RRIRMRPPRLPRPRPRPFESPRP

OUT:
1. -0.115
2. -0.936
3. -0.685
4. 0.00198
5. -0.546
6. -0.012
7. -0.00973

State the recorded shrunken log2 fold change for every item in the following list.
1. RRIRARPPRLPRPRPRPQKLPRP
2. RRIRHRPPRLPRPRPRPLANPRP
3. RRIRTRPPRLPRPRPRPTLAPRP

OUT:
1. 0.298
2. -0.263
3. 0.54

State the recorded shrunken log2 fold change for every item in the following list.
1. RRIRGRPPRLPRPRPRPNGHPRP
2. RRIRSRPPRLPRPRPRPTTCPRP
3. RRIRNRPPRLPRPRPRPMLPPRP
4. RRIRKRPPRLPRPRPRPLTVPRP
5. RRIRWRPPRLPRPRPRPYMCPRP
6. RRIRSRPPRLPRPRPRPIFYPRP
7. RRIRSRPPRLPRPRPRPRNLPRP
8. RRIRARPPRLPRPRPRPWVFPRP

OUT:
[0.197, 0.0283, 0.00241, 0.344, 0.00232, -0.387, -0.322, 0.276]

State the recorded shrunken log2 fold change for every item in the following list.
1. RRIRFRPPRLPRPRPRPWIPPRP
2. RRIRHRPPRLPRPRPRPQCCPRP

OUT:
1: -0.432; 2: -0.00176

* * *

- Tested on: Escherichia coli TOP10
- run-description: shrunken log2 fold change of peptide-encoding DNA abundance (4.5 h post-induction vs induction); higher = less antimicrobial activity (less host growth inhibition)
- stated-conditions: time post-induction: 4.5 h; library: site-saturation at positions 5, 18, 19, 20
Field: class. Source value: shrunken log2 fold change. Ranges: low range (below -0.1), mid range (-0.1 to below -0.01), high range (-0.01 or more)

Take a look at these entries with their results.
RRIRMRPPRLPRPRPRPGDTPRP    high range
RRIRVRPPRLPRPRPRPPSNPRP    mid range
RRIRPRPPRLPRPRPRPLMFPRP    low range
RRIRDRPPRLPRPRPRPFVTPRP    mid range
RRIRIRPPRLPRPRPRPWQYPRP    mid range

IN: Note: place this sequence into its band. Item: RRIRPRPPRLPRPRPRPFWCPRP
OUT: mid range

IN: Note: place this sequence into its band. Item: RRIRYRPPRLPRPRPRPSHLPRP
OUT: low range

IN: Note: place this sequence into its band. Item: RRIRKRPPRLPRPRPRPYMPPRP
OUT: low range

* * *

- System: Escherichia coli TOP10
- run-description: shrunken log2 fold change of peptide-encoding DNA abundance (4.5 h post-induction vs induction); higher = less antimicrobial activity (less host growth inhibition)
- stated-conditions: time post-induction: 4.5 h; library: site-saturation at positions 5, 18, 19, 20
Field: shrunken log2 fold change. Provide a value for each of the sequences that follow.
Answers are plain numbers.

Here are 8 sequences together with their reported answers.
RRIRDRPPRLPRPRPRPSCLPRP    -0.0009
RRIRRRPPRLPRPRPRPLYSPRP    -0.0185
RRIRRRPPRLPRPRPRPVSQPRP    0.264
RRIRRRPPRLPRPRPRPQTMPRP    0.0791
RRIRTRPPRLPRPRPRPFFFPRP    0.0893
RRIRWRPPRLPRPRPRPFYTPRP    -0.575
RRIRMRPPRLPRPRPRPIYCPRP    -0.163
RRIRRRPPRLPRPRPRPEMIPRP    -0.00643

State the recorded shrunken log2 fold change for every item in the following list.
1. RRIRLRPPRLPRPRPRPSLYPRP
2. RRIRMRPPRLPRPRPRPANYPRP
3. RRIRERPPRLPRPRPRPKTCPRP
4. RRIRIRPPRLPRPRPRPPKCPRP
5. RRIRDRPPRLPRPRPRPLLKPRP
6. RRIRRRPPRLPRPRPRPCQMPRP
7. RRIRCRPPRLPRPRPRPSLRPRP

OUT:
1: -0.431; 2: -0.394; 3: -0.267; 4: -0.101; 5: 0.437; 6: 0.0273; 7: -0.305

* * *

- System: Escherichia coli TOP10
- run-description: shrunken log2 fold change of peptide-encoding DNA abundance (4.5 h post-induction vs induction); higher = less antimicrobial activity (less host growth inhibition)
- stated-conditions: time post-induction: 4.5 h; library: site-saturation at positions 5, 18, 19, 20
Entry flag: criterion met if shrunken log2 fold change reaches 0.01; criterion not met if it does not.

Take a look at these entries with their results.
RRIRDRPPRLPRPRPRPKHLPRP    criterion not met
RRIRRRPPRLPRPRPRPQQPPRP    criterion met

IN: Tell me whether shrunken log2 fold change is at least 0.01 here: RRIRYRPPRLPRPRPRPKYNPRP
OUT: criterion not met

IN: Tell me whether shrunken log2 fold change is at least 0.01 here: RRIRVRPPRLPRPRPRPWWMPRP
OUT: criterion not met

IN: Tell me whether shrunken log2 fold change is at least 0.01 here: RRIRCRPPRLPRPRPRPRKLPRP
OUT: criterion met

IN: Tell me whether shrunken log2 fold change is at least 0.01 here: RRIRWRPPRLPRPRPRPTNDPRP
OUT: criterion met

IN: Tell me whether shrunken log2 fold change is at least 0.01 here: RRIRIRPPRLPRPRPRPNQLPRP
OUT: criterion not met

IN: Tell me whether shrunken log2 fold change is at least 0.01 here: RRIRGRPPRLPRPRPRPILYPRP
OUT: criterion met

IN: Tell me whether shrunken log2 fold change is at least 0.01 here: RRIRIRPPRLPRPRPRPQQQPRP
OUT: criterion not met

* * *

Field: shrunken log2 fold change. Provide a value for each of the sequences that follow.
- System: Escherichia coli TOP10;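 further: peptides expressed intracellularly from a pBAD plasmid library in pooled LB shake-flask culture, induced with 0.3% L-arabinose, DNA abundance read by NGS, three biological replicates, DESeq2 with apeglm shrinkage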
- run-description: shrunken log2 fold change of peptide-encoding DNA abundance (4.5 h post-induction vs induction); higher = less antimicrobial activity (less host growth inhibition)
- stated-conditions: time post-induction: 4.5 h; library: site-saturation at positions 5, 18, 19, 20

Here are 10 sequences together with their reported answers.
RRIRNRPPRLPRPRPRPKKWPRP    -0.00407
RRIRRRPPRLPRPRPRPDWIPRP    -0.223
RRIRDRPPRLPRPRPRPIAPPRP    0.0634
RRIRARPPRLPRPRPRPRSDPRP    0.257
RRIRLRPPRLPRPRPRPRNLPRP    -0.0507
RRIRTRPPRLPRPRPRPNKAPRP    -0.0944
RRIRHRPPRLPRPRPRPRGPPRP    0.171
RRIRVRPPRLPRPRPRPNRGPRP    0.108
RRIRTRPPRLPRPRPRPDNTPRP    -0.191
RRIRKRPPRLPRPRPRPKTCPRP    0.209

State the recorded shrunken log2 fold change for every item in the following list.
1. RRIRSRPPRLPRPRPRPDFNPRP
2. RRIRIRPPRLPRPRPRPCCVPRP
3. RRIRWRPPRLPRPRPRPRYVPRP
4. RRIRIRPPRLPRPRPRPMDLPRP
5. RRIRERPPRLPRPRPRPVKNPRP
6. RRIRNRPPRLPRPRPRPQYRPRP

OUT:
[-0.411, -0.726, -0.147, -1.16, 0.0428, 0.576]

State the recorded shrunken log2 fold change for every item in the following list.
1. RRIRRRPPRLPRPRPRPKVWPRP
2. RRIRMRPPRLPRPRPRPKLVPRP
3. RRIRQRPPRLPRPRPRPDKMPRP

OUT:
0.382
0.115
0.021

State the recorded shrunken log2 fold change for every item in the following list.
1. RRIRPRPPRLPRPRPRPERIPRP
2. RRIRHRPPRLPRPRPRPHEQPRP
3. RRIRKRPPRLPRPRPRPHQLPRP
4. RRIRERPPRLPRPRPRPRIWPRP
5. RRIRFRPPRLPRPRPRPMPAPRP

OUT:
1. 0.152
2. -0.0118
3. 0.0824
4. 0.143
5. 0.283

State the recorded shrunken log2 fold change for every item in the following list.
1. RRIRIRPPRLPRPRPRPLWSPRP
2. RRIRYRPPRLPRPRPRPFCFPRP

OUT:
[-0.245, -0.114]

Source listed as the supplement of paper PMC9112550.
